experiment: RNA encapsulation efficacy by Quant-IT Ribogreen kit; format: physicochemical; conditions: LNP with mRNA (SEQ ID NO: 2)
Form field: Encapsulation Efficiency (one value per entry).
MEASURED_ENDPOINT: Encapsulation Efficiency (%)

[[record]]
compound = "CCCCC/C=C\\C/C=C\\CCCCCCCCN(CCCCCCCC(=O)OC(CCCCCCCC)CCCCCCCC)CCCOC(=O)NCc1ncc[nH]1 [Lipid 271]"
measured_endpoint = "Encapsulation Efficiency"
result_value = 94.51

[[record]]
compound = "CCCCC/C=C\\CCOC(=O)CCCCCCCN(CCCCCCCC(=O)OCC/C=C\\CCCCC)CCOC(=O)CCCN(C)C [Lipid C, reference compound]"
measured_endpoint = "Encapsulation Efficiency"
result_value = 84.38

[[record]]
compound = "CCCCCCCCC(CCCCCCCC)OC(=O)CCCCCCCN(CCCCCCCCOC(=O)C(CCCCCC)CCCCCCCC)CCCOC(=O)NCCN1CCCCC1 (centres unmarked) [Lipid 351]"
measured_endpoint = "Encapsulation Efficiency"
result_value = 66.39

[[record]]
compound = "CCCCCCCCCCC(CCCCCCCC)COC(=O)CCCCCN(CCCCCC(=O)OCC(CCCCCCCC)CCCCCCCCCC)CCOC(=O)NCCN(C)C (centres unmarked) [Lipid 170]"
measured_endpoint = "Encapsulation Efficiency"
result_value = 86.13

[[record]]
compound = "CCCCCCCCC(CCCCCCCC)OC(=O)CCCCCCCN(CCCCCCCCOC(=O)C(CCCCCC)CCCCCCCC)CCOC(=O)NCCN(C)C (centres unmarked) [Lipid 66]"
measured_endpoint = "Encapsulation Efficiency"
result_value = 88.25

[[record]]
compound = "CCCCCCCCCCC(CCCCCCCC)COC(=O)CCCCCN(CCCCCC(=O)OCC(CCCCCCCC)CCCCCCCCCC)CCOC(=O)NCCN1CCCC1 (centres unmarked) [Lipid 168]"
measured_endpoint = "Encapsulation Efficiency"
result_value = 89.10

[[record]]
compound = "CCCCCCCCC(CCCCCC)C(=O)OCCCCCCCCN(CCCCCCCCOC(=O)C(CCCCCC)CCCCCCCC)CCCOC(=O)NCCN1CCCCCC1 (centres unmarked) [Lipid 383]"
measured_endpoint = "Encapsulation Efficiency"
result_value = 86.72

[[record]]
compound = "CCCCCCCCC(CCCCCC)C(=O)OCCCCCCCCN(CCCCCCCCOC(=O)C(CCCCCC)CCCCCCCC)CCCOC(=O)NCCN1CCCCC1 (centres unmarked) [Lipid 380]"
measured_endpoint = "Encapsulation Efficiency"
result_value = 80.50

[[record]]
compound = "CCCCCCCCC(CCCCCC)C(=O)OCCCCCCCCN(CCCCCCCCOC(=O)C(CCCCCC)CCCCCCCC)CCOC(=O)NCCN(C)C (centres unmarked) [Lipid 6]"
measured_endpoint = "Encapsulation Efficiency"
result_value = 93.16

[[record]]
compound = "CCCCCCCCC(CCCCCCCC)OC(=O)CCCCCCCN(CCCCCCCCOC(=O)C(CCCCCC)CCCCCCCC)CCCOC(=O)NCCCN(C)C (centres unmarked) [Lipid 348]"
measured_endpoint = "Encapsulation Efficiency"
result_value = 83.15

[[record]]
compound = "CCCCCCCCC(CCCCCC)C(=O)OCCCCCCCCN(CCCCCCCCCCC(=O)OCCCCCC)CCOC(=O)NCCN(C)C (centres unmarked) [Lipid 43]"
measured_endpoint = "Encapsulation Efficiency"
result_value = 88

[[record]]
compound = "CCCCCCCCCCC(CCCCCCCC)COC(=O)CCCCCN(CCCCCC(=O)OCC(CCCCCCCC)CCCCCCCCCC)CCCOC(=O)NCCN1CCCC1 (centres unmarked) [Lipid 369]"
measured_endpoint = "Encapsulation Efficiency"
result_value = 92.99

[[record]]
compound = "CCCCCCCCCC(=O)OCCCCCCCN(CCCCCCCCOC(=O)C(CCCCCC)CCCCCCCC)CCOC(=O)NCCN(C)C (centres unmarked) [Lipid 197]"
measured_endpoint = "Encapsulation Efficiency"
result_value = 79.87

[[record]]
compound = "CCCCCCCCC(CCCCCCCC)OC(=O)CCCCCCCN(CCCCCCCCOC(=O)C(CCCCCC)CCCCCCCC)CCCOC(=O)NCCN1CCCC1 (centres unmarked) [Lipid 350]"
measured_endpoint = "Encapsulation Efficiency"
result_value = 83.19

[[record]]
compound = "CCCCCCCCCCC(CCCCCCCC)COC(=O)CCCCCN(CCCCCC(=O)OCC(CCCCCCCC)CCCCCCCCCC)CCOC(=O)NCCN1CCCCC1 (centres unmarked) [Lipid 169]"
measured_endpoint = "Encapsulation Efficiency"
result_value = 87.64

[[record]]
compound = "CCCCCCCCC(CCCCCCCC)OC(=O)CCCCCCCN(CCCCCCCCOC(=O)C(CCCCCC)CCCCCCCC)CCOC(=O)NCCN1CCCC1 (centres unmarked) [Lipid 148]"
measured_endpoint = "Encapsulation Efficiency"
result_value = 93.50

[[record]]
compound = "CCCCCCCCCC(=O)OCCCCCCCN(CCCCCCCCOC(=O)C(CCCCCC)CCCCCCCC)CCOC(=O)NCCN1CCCC1 (centres unmarked) [Lipid 195]"
measured_endpoint = "Encapsulation Efficiency"
result_value = 75.44

[[record]]
compound = "CCCCCCCCC(CCCCCC)C(=O)OCCCCCCCCN(CCCCCCCCOC(=O)C(CCCCCC)CCCCCCCC)CCCOC(=O)NCc1ncc[nH]1 (centres unmarked) [Lipid 375]"
measured_endpoint = "Encapsulation Efficiency"
result_value = 88.53

[[record]]
compound = "CCCCCCCCCCCOC(=O)CCCCCN(CCCCCCCC(=O)OC(CCCCCCCC)CCCCCCCC)CCOC(=O)NCCN1CCCCC1 [Lipid 165]"
measured_endpoint = "Encapsulation Efficiency"
result_value = 86.43

[[record]]
compound = "CCCCCCCCCCC(CCCCCCCC)COC(=O)CCCCCN(CCCCCC(=O)OCC(CCCCCCCC)CCCCCCCCCC)CCCOC(=O)NCCN1CCCCC1 (centres unmarked) [Lipid 370]"
measured_endpoint = "Encapsulation Efficiency"
result_value = 93.87

[[record]]
compound = "CCCCC/C=C\\C/C=C\\CCCCCCCCN(CCCCCCCC(=O)OC(CCCCCCCC)CCCCCCCC)CCOC(=O)NCCN(C)C [Lipid 129]"
measured_endpoint = "Encapsulation Efficiency"
result_value = 90

[[record]]
compound = "CCCCCCCCC(CCCCCC)C(=O)OCCCCCCCCN(CCCCCCCCOC(=O)C(CCCCCC)CCCCCCCC)CCCOC(=O)NCCCN(CC)CC (centres unmarked) [Lipid 376]"
measured_endpoint = "Encapsulation Efficiency"
result_value = 90.28

[[record]]
compound = "CCCCC/C=C\\C/C=C\\CCCCCCCCN(CCCCCCCC/C=C\\C/C=C\\CCCCC)CCOC(=O)[C@@H](N)Cc1c[nH]cn1 [Lipid B, reference compound]"
measured_endpoint = "Encapsulation Efficiency"
result_value = 86.87

[[record]]
compound = "CCCCC/C=C\\C/C=C\\CCCCCCCCN(CCCCCCCC(=O)OC(CCCCCCCC)CCCCCCCC)CCCOC(=O)NCCCn1ccnc1 [Lipid 276]"
measured_endpoint = "Encapsulation Efficiency"
result_value = 94.50

[[record]]
compound = "CCCCCCCCC(CCCCCCCC)OC(=O)CCCCCCCN(CCCCCCCCOC(=O)C(CCCCCC)CCCCCCCC)CCCOC(=O)NCCN1CCCCCC1 (centres unmarked) [Lipid 354]"
measured_endpoint = "Encapsulation Efficiency"
result_value = 71.30

[[record]]
compound = "CCCCC/C=C\\C/C=C\\CCCCCCCCN(CCCCCCCC(=O)OC(CCCCCCCC)CCCCCCCC)CCCOC(=O)NCCN1CCCCC1 [Lipid 278]"
measured_endpoint = "Encapsulation Efficiency"
result_value = 86.19

